Molecular target: (recombinant) catalytic domain of human Bub1 (amino acids 704-1085) (Homo sapiens (Human), UniProt O43683)
Sequence (O43683 704-1085): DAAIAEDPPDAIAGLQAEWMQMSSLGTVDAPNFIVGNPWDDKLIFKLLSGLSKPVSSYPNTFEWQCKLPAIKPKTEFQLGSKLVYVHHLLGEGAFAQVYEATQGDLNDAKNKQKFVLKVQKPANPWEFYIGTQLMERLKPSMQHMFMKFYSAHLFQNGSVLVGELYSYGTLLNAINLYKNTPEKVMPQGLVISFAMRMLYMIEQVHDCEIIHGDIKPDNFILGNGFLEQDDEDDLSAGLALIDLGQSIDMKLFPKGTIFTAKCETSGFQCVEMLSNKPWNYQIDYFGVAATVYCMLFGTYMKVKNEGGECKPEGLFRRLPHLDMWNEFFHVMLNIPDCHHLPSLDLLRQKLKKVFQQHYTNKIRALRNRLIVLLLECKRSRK
Assay: Bub1 kinase assay (TR-FRET)
Conditions: ATP 10 μM, peptide substrate 1 μM, 60 min at 22° C., read-out: Inhibition of Bub1 kinase IC50
Procedure: […] In a typical assay 11 different concentrations of each compound (0.1 nM, 0.33 nM, 1.1 nM, 3.8 nM, 13 nM, 44 nM, 0.15 μM, 0.51 μM, 1.7 μM, 5.9 μM and 20 μM) were tested in duplicate within the same microtiter plate. […] Subsequently, the amount of product was evaluated by measurement of the resonance energy transfer from the Eu-chelate-antibody complex recognizing the Phosphoserine residue to the streptavidin-XL665 bound to the biotin moiety of the peptide. […]
Classify: condition met when IC50 is strictly less than 20 nM; condition not met when IC50 is not.

These solved cases illustrate the format of a correct answer.
{"molecule": "Cn1ccc(C(=O)Nc2cc(-c3[nH]c4c(c3Nc3ccccc3)C(=O)[C@H]3C[C@@]3(C)C4=O)ccn2)n1 (relative stereo)", "group label": "condition not met"}
{"molecule": "CC(=O)Nc1cc(-c2[nH]c3c(c2Nc2ccccc2)C(=O)CCC(C)C3)ccn1 (racemic)", "group label": "condition met"}
{"molecule": "CC1(C(=O)Nc2cc(-c3[nH]c4c(c3Nc3ccccc3)C(=O)[C@@H]3C[C@]3(C)C4=O)ccn2)CC1 (relative stereo)", "group label": "condition not met"}
{"molecule": "Cc1ccc(=O)c2c(Nc3ccccc3)c(-c3ccnc(N)c3)[nH]c2c1", "group label": "condition not met"}
{"molecule": "CC1(C)[C@@H]2C[C@H]1C(=O)c1c2[nH]c(-c2ccncc2F)c1Nc1ccccc1 (relative stereo)", "group label": "condition not met"}

Input C[C@@]12Cc3[nH]c(-c4ccncc4)c(Nc4ccccc4)c3C(=O)[C@@H]1C2 (relative stereo) ; condition: IC50 strictly below 20 nM. Does it hold?
condition met

====

Kindly state IC50 for each of the entries shown.
target: (recombinant) catalytic domain of human Bub1 (amino acids 704-1085) (Homo sapiens (Human)); assay: Bub1 kinase assay (TR-FRET); conditions: ATP 10 μM, peptide substrate 1 μM, 60 min at 22° C., read-out: Inhibition of Bub1 kinase IC50
Answers are plain numbers, in nM.

Worked examples follow.
{"compound": "CC1(C)[C@@H]2C[C@H]1C(=O)c1c2[nH]c(-c2ccnc(N)c2)c1Nc1ccccc1 (relative stereo) [Example 2]", "IC50 / nM": 1160}
{"compound": "CN1C[C@H]2C(=O)c3c([nH]c(-c4ccncc4)c3Nc3ccccc3)C[C@H]2C1=O (relative stereo) [Example 11]", "IC50 / nM": 19}
{"compound": "CC(=O)Nc1cc(-c2[nH]c3c(c2Nc2ccccc2)C(=O)[C@@H]2C[C@H]3C2(C)C)ccn1 (relative stereo) [Example 5]", "IC50 / nM": 115}
{"compound": "COc1cc(C(=O)Nc2cc(-c3[nH]c4c(c3Nc3ccccc3)C(=O)[C@H]3C[C@@]3(C)C4=O)ccn2)ccc1F (relative stereo) [Example 35]", "IC50 / nM": 71}
{"compound": "C[C@@]12Cc3[nH]c(-c4ccnc(NS(C)(=O)=O)c4)c(Nc4ccccc4)c3C(=O)[C@@H]1C2 (relative stereo) [Example 27]", "IC50 / nM": 630}

Parameters: items (list). Returns: IC50 for each item.
1. O=C1CCCCc2[nH]c(-c3ccncc3)c(Nc3ccccc3)c21 [Example 22]
2. CC1(C)[C@@H]2C[C@H]1C(=O)c1c2[nH]c(-c2ccnc(NC(=O)NC3CC3)c2)c1Nc1ccccc1 (relative stereo) [Example 9]
3. CC1(C)[C@@H]2C[C@H]1C(=O)c1c2[nH]c(-c2ccncc2)c1Nc1ccccc1 (relative stereo) [Example 1]
4. CC(=O)Nc1cc(-c2[nH]c3c(c2Nc2ccccc2)C(=O)[C@@H]2C[C@@H]2C3)ccn1 (relative stereo) [Example 15]

6
240
146
6
